Target under test: Amyloid-beta precursor protein (Homo sapiens, UniProt P05067)
Sequence (P05067 whole entry): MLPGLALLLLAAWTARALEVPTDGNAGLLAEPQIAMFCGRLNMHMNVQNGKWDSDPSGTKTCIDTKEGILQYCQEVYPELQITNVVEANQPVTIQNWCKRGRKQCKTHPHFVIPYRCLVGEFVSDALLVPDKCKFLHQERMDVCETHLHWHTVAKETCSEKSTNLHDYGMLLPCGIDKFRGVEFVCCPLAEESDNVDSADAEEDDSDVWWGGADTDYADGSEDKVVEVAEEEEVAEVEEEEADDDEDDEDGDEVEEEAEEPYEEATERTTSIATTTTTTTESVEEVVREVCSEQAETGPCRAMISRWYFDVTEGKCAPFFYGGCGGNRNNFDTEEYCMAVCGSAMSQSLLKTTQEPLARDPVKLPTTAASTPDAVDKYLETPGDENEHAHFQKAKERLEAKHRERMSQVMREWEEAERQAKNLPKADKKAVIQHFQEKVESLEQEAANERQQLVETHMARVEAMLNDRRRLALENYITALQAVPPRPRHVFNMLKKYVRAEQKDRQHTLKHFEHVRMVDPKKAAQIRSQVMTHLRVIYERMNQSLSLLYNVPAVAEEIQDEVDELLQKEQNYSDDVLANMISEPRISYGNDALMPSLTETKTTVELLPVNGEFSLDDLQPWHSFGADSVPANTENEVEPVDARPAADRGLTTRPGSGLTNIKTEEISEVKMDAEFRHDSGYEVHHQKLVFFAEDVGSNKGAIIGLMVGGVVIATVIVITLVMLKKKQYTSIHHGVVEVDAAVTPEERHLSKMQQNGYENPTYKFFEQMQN
Experiment: Inhibition of [125I]IMPY binding to amyloid beta (1 to 42) aggregates (unknown origin) by gamma counting
pKi: −log10 of the molar value.
Property measured: pKi

CN(C)c1ccc(-c2nnc(-c3cccc(I)c3)o2)cn1	7.87

[A] CN(C)c1ccc(-c2nnc(-c3ccc(I)cc3)o2)cc1
[B] CN(C)c1ccc(-c2nnc(-c3ccc(I)cc3)o2)cn1
Ask | Lab note: check whether A or B has the lower measured pKi. Pick one; state its label.
Reply | B
